- test.protocol: Therapeutic index, ratio of HC50 for human RBC to MIC for antibacterial activity against methicillin-sensitive Staphylococcus aureus ATCC 29213 clinical isolate
- Assay type: toxicity, cell-based
- condition.parameters: pooled result: one value given for 2 cell lines, strains, targets or settings, read-out: TI
Peptide text beside a SMILES is read from it.
quantity.kind: selectivity ratio

Consider the compound shown here: CC(C)C[C@@H]1NC(=O)[C@H](CCCN)NC(=O)[C@H](C(C)(C)C)NC(=O)[C@@H]2CCCN2C(=O)[C@@H](Cc2ccccc2)NC(=O)[C@H](CC(C)C)NC(=O)[C@H](CCCN)NC(=O)[C@H](C(C)(C)C)NC(=O)[C@@H]2CCCN2C(=O)[C@@H](CCCNC(=N)N)NC1=O (HELM PEPTIDE1{L.[dF].P.[CC(C)(C)[C@H](N[*:1])C(=O)[*:2]].[Orn].L.[dR].P.[CC(C)(C)[C@H](N[*:1])C(=O)[*:2]].[Orn]}$PEPTIDE1,PEPTIDE1,1:R1-10:R2$$$V2.0) What is its recorded selectivity ratio?
5.9

----------
- test.protocol: Hemolytic activity in human RBC assessed as hemolysis incubated for 1 hr by absorbance based assay
- Type: toxicity, cell-based, Erythrocyte
- condition.parameters: human red blood cells
Peptide text beside a SMILES is read from it.
Recorded HC50 at 1 h for the following compounds
Respond numerically; units are µg/mL and should not be typed.

compound	result
CC(C)C[C@@H]1NC(=O)[C@H](CCCN)NC(=O)[C@H](C(C)C)NC(=O)[C@@H]2CCCN2C(=O)[C@@H](Cc2ccccc2)NC(=O)[C@H](CC(C)C)NC(=O)[C@H](CCCN)NC(=O)[C@H](C(C)C)NC(=O)[C@H](Cc2c[nH]c3ccccc23)NC(=O)[C@@H](CCCNC(=N)N)NC1=O (HELM PEPTIDE1{L.[dF].P.V.[Orn].L.[dR].W.V.[Orn]}$PEPTIDE1,PEPTIDE1,1:R1-10:R2$$$V2.0)	32.8

Requested read-out: HC50 at 1 h. Entry: CC(C)C[C@@H]1NC(=O)[C@H](CCCN)NC(=O)[C@H](C(C)(C)C)NC(=O)[C@@H]2CCCN2C(=O)[C@@H](Cc2ccccc2)NC(=O)[C@H](CC(C)C)NC(=O)[C@H](CCCN)NC(=O)[C@H](C(C)C)NC(=O)[C@@H]2CCCN2C(=O)[C@@H](CCCNC(=N)N)NC1=O
60.2

----------
- test.protocol: Hemolytic activity in human RBC assessed as hemolysis incubated for 1 hr by absorbance based assay
- Format: toxicity, cell-based, Erythrocyte
- condition.parameters: human red blood cells
Peptide text beside a SMILES is read from it.
quantity.kind: HC50 at 1 h (µg/mL)
Just the number please, in µg/mL, no unit attached.

Given the molecule CC(C)C[C@@H]1NC(=O)[C@H](CCCN)NC(=O)[C@H](C(C)(C)C)NC(=O)[C@@H]2CCCN2C(=O)[C@@H](Cc2ccccc2)NC(=O)[C@H](CC(C)C)NC(=O)[C@H](CCCN)NC(=O)[C@H](C(C)(C)C)NC(=O)[C@@H]2CCCN2C(=O)[C@@H](CCCNC(=N)N)NC1=O (HELM PEPTIDE1{L.[dF].P.[CC(C)(C)[C@H](N[*:1])C(=O)[*:2]].[Orn].L.[dR].P.[CC(C)(C)[C@H](N[*:1])C(=O)[*:2]].[Orn]}$PEPTIDE1,PEPTIDE1,1:R1-10:R2$$$V2.0) , what is its reported HC50 at 1 h?
17.7

----------
Measured MIC, listed per entry for reference.
- Tested on: Staphylococcus aureus
- test.protocol: Antibacterial activity against methicillin-resistant Staphylococcus aureus ATCC USA 300 clinical isolate assessed as bacterial growth inhibition at 256 to 0.125 ug/ml in CAMH broth medium incubated for 16 to 20 hrs by broth microdilution method
- Type: functional
- condition.parameters: dose 256-0.125 µg/ml, time 16-20 hrs
Square brackets hold non-standard residues; d marks the D form. Peptide text beside a SMILES is read from it. Tle = CC(C)(C)[C@H](N)C(=O)O; Orn = NCCC[C@H](N)C(=O)O

compound	tgt	MIC
CC(C)C[C@@H]1NC(=O)[C@H](CCCN)NC(=O)[C@H](C(C)(C)C)NC(=O)[C@@H]2CCCN2C(=O)[C@@H](Cc2ccccc2)NC(=O)[C@H](CC(C)C)NC(=O)[C@H](CCCN)NC(=O)[C@H](C(C)(C)C)NC(=O)[C@@H]2CCCN2C(=O)[C@@H](Cc2ccccc2)NC1=O (HELM PEPTIDE1{L.[dF].P.[CC(C)(C)[C@H](N[*:1])C(=O)[*:2]].[Orn].L.[dF].P.[CC(C)(C)[C@H](N[*:1])C(=O)[*:2]].[Orn]}$PEPTIDE1,PEPTIDE1,1:R1-10:R2$$$V2.0)	Staphylococcus aureus	4 µg/mL

Need MIC of CC(C)C[C@@H]1NC(=O)[C@H](CCCN)NC(=O)[C@H](C(C)(C)C)NC(=O)[C@@H]2CCCN2C(=O)[C@@H](Cc2ccccc2)NC(=O)[C@H](CC(C)C)NC(=O)[C@H](CCCN)NC(=O)[C@H](C(C)C)NC(=O)[C@@H]2CCCN2C(=O)[C@@H](CCCNC(=N)N)NC1=O , thanks.
6 µg/mL

So what's the measured MIC for this one? CC(C)(C)[C@@H]1NC(=O)[C@H](CCCN)NC(=O)[C@H](C(C)(C)C)NC(=O)[C@@H]2CCCN2C(=O)[C@@H](Cc2ccccc2)NC(=O)[C@H](C(C)(C)C)NC(=O)[C@H](CCCN)NC(=O)[C@H](C(C)(C)C)NC(=O)[C@@H]2CCCN2C(=O)[C@@H](Cc2ccccc2)NC1=O (cyclo([Orn][Tle][dF]P[Tle][Orn][Tle][dF]P[Tle]))
2 µg/mL

Recorded MIC of CC(C)C[C@@H]1NC(=O)[C@H](CCCN)NC(=O)[C@H](C(C)C)NC(=O)[C@@H]2CCCN2C(=O)[C@@H](Cc2ccccc2)NC(=O)[C@H](CC(C)C)NC(=O)[C@H](CCCN)NC(=O)[C@H](C(C)C)NC(=O)[C@H](Cc2c[nH]c3ccccc23)NC(=O)[C@@H](Cc2ccccc2)NC1=O (HELM PEPTIDE1{L.[dF].P.V.[Orn].L.[dF].W.V.[Orn]}$PEPTIDE1,PEPTIDE1,1:R1-10:R2$$$V2.0) , please.
4 µg/mL

----------
HC50 at 1 h values, listed per item
- test.protocol: Hemolytic activity in human RBC assessed as hemolysis incubated for 1 hr by absorbance based assay
- Assay type: toxicity, cell-based, Erythrocyte
- condition.parameters: human red blood cells
Square brackets hold non-standard residues; d marks the D form. Peptide text beside a SMILES is read from it. Tle = CC(C)(C)[C@H](N)C(=O)O; Orn = NCCC[C@H](N)C(=O)O
Numeric answer only, unit µg/mL assumed.

Field: example entries. Status: answers known.
molecule	quantity.kind	result
CC(C)C[C@@H]1NC(=O)[C@H](CCCN)NC(=O)[C@H](C(C)C)NC(=O)[C@H](Cc2c[nH]c3ccccc23)NC(=O)[C@@H](Cc2ccccc2)NC(=O)[C@H](CC(C)C)NC(=O)[C@H](CCCN)NC(=O)[C@H](C(C)C)NC(=O)[C@H](Cc2c[nH]c3ccccc23)NC(=O)[C@@H](Cc2ccccc2)NC1=O (HELM PEPTIDE1{L.[dF].W.V.[Orn].L.[dF].W.V.[Orn]}$PEPTIDE1,PEPTIDE1,1:R1-10:R2$$$V2.0)	HC50 at 1 h	12.2
CC(C)C[C@@H]1NC(=O)[C@H](CCCN)NC(=O)[C@H](C(C)C)NC(=O)[C@@H]2CCCN2C(=O)[C@@H](Cc2ccccc2)NC(=O)[C@H](CC(C)C)NC(=O)[C@H](CCCN)NC(=O)[C@H](C(C)C)NC(=O)[C@@H]2CCCN2C(=O)[C@@H](Cc2ccccc2)NC1=O [GRAMICIDIN S] (HELM PEPTIDE1{L.[dF].P.V.[Orn].L.[dF].P.V.[Orn]}$PEPTIDE1,PEPTIDE1,1:R1-10:R2$$$V2.0)	HC50 at 1 h	12.3

Okay, now this molecule:
Recorded HC50 at 1 h of CC(C)(C)[C@@H]1NC(=O)[C@H](CCCN)NC(=O)[C@H](C(C)(C)C)NC(=O)[C@@H]2CCCN2C(=O)[C@@H](Cc2ccccc2)NC(=O)[C@H](C(C)(C)C)NC(=O)[C@H](CCCN)NC(=O)[C@H](C(C)(C)C)NC(=O)[C@@H]2CCCN2C(=O)[C@@H](Cc2ccccc2)NC1=O (cyclo([Orn][Tle][dF]P[Tle][Orn][Tle][dF]P[Tle])) , please.
5.9

----------
- test.protocol: Nephrotoxicity against HEK293 cells assessed as cell viability incubated for 24 hrs by MTT assay
- Assay type: toxicity, cell-based
- condition.parameters: human
Peptide text beside a SMILES is read from it.
quantity.kind: IC50 at 24 h (µg/mL)
Write the value in µg/mL as a bare number.

compound	quantity.kind	u	result
CC(C)C[C@@H]1NC(=O)[C@H](CCCN)NC(=O)[C@H](C(C)(C)C)NC(=O)[C@@H]2CCCN2C(=O)[C@@H](Cc2ccccc2)NC(=O)[C@H](CC(C)C)NC(=O)[C@H](CCCN)NC(=O)[C@H](C(C)(C)C)NC(=O)[C@@H]2CCCN2C(=O)[C@@H](CCCNC(=N)N)NC1=O (HELM PEPTIDE1{L.[dF].P.[CC(C)(C)[C@H](N[*:1])C(=O)[*:2]].[Orn].L.[dR].P.[CC(C)(C)[C@H](N[*:1])C(=O)[*:2]].[Orn]}$PEPTIDE1,PEPTIDE1,1:R1-10:R2$$$V2.0)	IC50 at 24 h	µg/mL	9.75

Could you now consider this next compound?
Given the compound CC(C)C[C@@H]1NC(=O)[C@H](CCCN)NC(=O)[C@H](C(C)C)NC(=O)[C@@H]2CCCN2C(=O)[C@@H](Cc2ccccc2)NC(=O)[C@H](CC(C)C)NC(=O)[C@H](CCCN)NC(=O)[C@H](C(C)C)NC(=O)[C@H](Cc2c[nH]c3ccccc23)NC(=O)[C@@H](Cc2ccccc2)NC1=O (HELM PEPTIDE1{L.[dF].P.V.[Orn].L.[dF].W.V.[Orn]}$PEPTIDE1,PEPTIDE1,1:R1-10:R2$$$V2.0) , what is its reported IC50 at 24 h?
5.07
